assay: protein stability index of a GFP-peptide fusion (yeast GPS) (PSI 1-4); higher = more stable; sorted into four equal gates, so the index is relative within each strain; settings: san1∆
Listed sequences paired with reported protein stability index
Give the value as a plain number.

{"Monomer Sequence": "EGPKKCIQVNCLNCEKS [SNM1]", "Readout Type": "protein stability index", "Experimental Value": 2.8}
{"Monomer Sequence": "LVEPSKVGQFDQVLNLC [FAS1]", "Readout Type": "protein stability index", "Experimental Value": 2.78}
{"Monomer Sequence": "IKIGIRVMKSLSINEKD [YCG1]", "Readout Type": "protein stability index", "Experimental Value": 1.36}
{"Monomer Sequence": "MDSIIPAGVKLDDLQVI [PGD1]", "Readout Type": "protein stability index", "Experimental Value": 2.57}
{"Monomer Sequence": "DASPAPSNESCSPWSLQ [SRB5]", "Readout Type": "protein stability index", "Experimental Value": 2.86}

[in] Find the recorded protein stability index belonging to LIKTLSTLHMLGYTHIA [RPP1] and report it.
[out] 2.62

[in] # get_value(readout='protein stability index', item= DSMKYTISSLFVQLCEM [RPC82] )
[out] 2.15

[in] Return reported protein stability index; argument: IFFNIPLVAHLGLYVGV [YJL039C/NUP192]
[out] 1.27

[in] What value of protein stability index has been recorded for this entry: ITLRGVENIERVVMMKY [RPO21]
[out] 1.23

[in] Recorded protein stability index for GSLTFLDNKGSGEDAEE [YIL149C/MLP2] , please?
[out] 3.56

[in] Which protein stability index value belongs to AVLKKIQSKAVEQGYED [YCG1] ?
[out] 3.08

[in] Returns the measured protein stability index for the input sequence. Input: TVWSANFEYDLSEYDAI [YOR098C/NUP1]
[out] 2.98

[in] Report protein stability index for GSIQKGMPHKFYQGKTG [RPL21A] please.
[out] 2.9

[in] Recorded protein stability index for VNKVPQNVAGDKTAVKL [SWP82] , please?
[out] 2.8

[in] Given the sequence AVEQRKKEKLDSGEVDA [DPB4] , what is its reported protein stability index?
[out] 3.36

[in] Bench note: what protein stability index did LKNLLRSNFRVNLSQEA [SNU114] show?
[out] 2.58

[in] What value of measured protein stability index is listed for YYDRKEELKNMFLYILK [RRI2] ?
[out] 1.27
